Reported folding stability dG values are given for each entry in this list.
B1: HEEH_KT_rd6_0007 (parent)
chain: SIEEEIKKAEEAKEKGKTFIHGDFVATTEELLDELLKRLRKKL

Variants of: B1
testProtocol: folding stability dG (cDNA display proteolysis); higher = more stable
recordedConditions: PBS, room temperature
Give a bare numeral; the unit kcal/mol is implied.

L32E; 0.247
E5F; 1.74

q: # folding stability dG lookup, item "R38G"
a: 0.522

q: Next variant up: "K7M"
a: 1.16

q: Next variant up: "K17N"
a: 1.36

q: Next variant up: "E3V"
a: 1.24

q: Next variant up: "L32T"
a: 0.441

q: Next variant up: "K13E"
a: 0.58

q: Next variant up: "R38E"
a: 0.927
